Entries annotated with measured Rel EC50
Molecular target: T1, DcR3 (UniProt O95407 30-300, limits assumed)
T1 construct: the construct is not described; also called decoy receptor DcR3; TNFRSF6B
T1 sequence (looked up): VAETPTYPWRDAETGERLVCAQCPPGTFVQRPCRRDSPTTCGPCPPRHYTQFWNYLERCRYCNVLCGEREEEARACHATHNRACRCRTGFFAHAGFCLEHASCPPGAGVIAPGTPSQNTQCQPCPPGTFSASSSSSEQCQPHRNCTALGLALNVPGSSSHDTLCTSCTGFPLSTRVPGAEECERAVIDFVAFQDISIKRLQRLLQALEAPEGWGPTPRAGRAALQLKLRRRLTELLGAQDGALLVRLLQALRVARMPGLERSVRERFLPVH
Assay: ELISA, DcR3

binder: TL1W84 (His-TEV-TL1A E120H) (ligand, also called TL1W84 (E120H)) HHHHHHENLYFQGLKGQEFAPSHQQVYAPLRADGDKPRAHLTVVRQTPTQHFKNQFPALHWHHELGLAFTKNRMNYTNKFLLIPESGDYFIYSQVTFRGMTSECSEIRQAGRPNKPDSITVVITKVTDSYPEPTQLLMGTKSVCEVGSNWFQPIYLGAMFSLQEGDKLMVNVSDISLVDYTKEDKTFFGAFLL
Rel EC50: 12.1 ratio (head: nM)
//
binder: TL1W31 (GD: Single chain MMB in CBIS; His-TEV-hTL1A 72-251 R103Q) (ligand, also called TL1W31 (R103Q)) HHHHHHENLYFQGLKGQEFAPSHQQVYAPLRADGDKPRAHLTVVQQTPTQHFKNQFPALHWEHELGLAFTKNRMNYTNKFLLIPESGDYFIYSQVTFRGMTSECSEIRQAGRPNKPDSITVVITKVTDSYPEPTQLLMGTKSVCEVGSNWFQPIYLGAMFSLQEGDKLMVNVSDISLVDYTKEDKTFFGAFLL
Rel EC50: 0.5 ratio (head: nM)

Okay, next one:
Prompt: Given the entry TL1W113 (His-TEV-TL1A P189S) (ligand, also called TL1W113 (P189S)) HHHHHHENLYFQGLKGQEFAPSHQQVYAPLRADGDKPRAHLTVVRQTPTQHFKNQFPALHWEHELGLAFTKNRMNYTNKFLLIPESGDYFIYSQVTFRGMTSECSEIRQAGRPNKPDSITVVITKVTDSYSEPTQLLMGTKSVCEVGSNWFQPIYLGAMFSLQEGDKLMVNVSDISLVDYTKEDKTFFGAFLL , report its measured Rel EC50.
Completion: 4.3 ratio (head: nM)
